# tgt: UniProtKB Q05941
# Sequence (Q05941 23-502): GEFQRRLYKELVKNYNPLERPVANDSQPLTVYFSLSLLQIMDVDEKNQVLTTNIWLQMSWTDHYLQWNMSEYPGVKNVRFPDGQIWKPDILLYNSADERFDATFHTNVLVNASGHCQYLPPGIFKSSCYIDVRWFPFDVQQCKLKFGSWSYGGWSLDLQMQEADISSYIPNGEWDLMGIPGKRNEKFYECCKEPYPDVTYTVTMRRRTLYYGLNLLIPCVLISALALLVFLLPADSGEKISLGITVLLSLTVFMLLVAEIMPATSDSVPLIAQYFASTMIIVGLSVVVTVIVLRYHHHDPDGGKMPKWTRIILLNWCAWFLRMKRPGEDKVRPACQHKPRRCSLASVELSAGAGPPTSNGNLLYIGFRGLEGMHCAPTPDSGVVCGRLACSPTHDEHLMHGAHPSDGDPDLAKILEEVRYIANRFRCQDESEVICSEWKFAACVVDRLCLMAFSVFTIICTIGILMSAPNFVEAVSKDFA
# protocolDetails: Patch-clamp electrophysiology in rat α7 nAChR
valueType: pEC50
To interpret pEC50, take it as minus log10 of a concentration measured in moles per litre.

input: Kindly state the measured pEC50 obtained for Oc1c(C2=NC3(CN2)CN2CCC3CC2)oc2ccccc12 (stereo not shown) [Compound 3a] with UniProtKB Q05941.
output: 6.22
